Source of measurements: PubChem BioAssay (NCATS)

# Tested on: Zika virus NS2B-NS3 protease
# METHOD_SUMMARY: Primary screen GU AMC qHTS for Zika virus inhibitors (AID 1347154);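 further: 0% = no-inhibitor control and -100% = no-enzyme control; nearly all actives have a fitted effect of over 70% in size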
# REPORTED_CONDITIONS: Zika NS2B-NS3 unlinked protease, AMC fluorogenic substrate; series mostly up to 54.1 µM
Records with an inconclusive call do not appear. Calls of active or inactive are those of the source. The call rests on the fitted dose curve; in most records, active means well fitted inhibition curve with a large enough effect; inconclusive means small, poorly fitted or top-dose-only effect; inactive means flat fitted curve, though single readings scatter.
ATTRIBUTE_MEASURED: activity change, negative = inhibition

Here is how some compounds turned out for activity change, negative = inhibition.
# COMPOUND, ATTRIBUTE_MEASURED, VALUE_MEASURED
measured = [
    ("CC/C=C\\C/C=C\\C/C=C\\C/C=C\\C/C=C\\C/C=C\\CCC(=O)O", "activity change, negative = inhibition", "inactive"),
    ("COc1ccc2nc(NC(=O)Nc3ccccc3)sc2c1", "activity change, negative = inhibition", "inactive"),
    ("NC[C@H]1O[C@H](O[C@H]2[C@H](O)[C@@H](O[C@H]3O[C@H](CO)[C@@H](O)[C@H](N)[C@H]3O)[C@H](N)C[C@@H]2N)[C@H](N)C[C@@H]1O", "activity change, negative = inhibition", "inactive"),
    ("C[C@@](Cc1ccc(O)c(O)c1)(NN)C(=O)O", "activity change, negative = inhibition", "inactive"),
    ("CN(C)CCCSc1ccccc1NC(=O)/C=C/c1ccccc1", "activity change, negative = inhibition", "inactive"),
]

Now consider the entry below.
Request: So what does the record say about activity change, negative = inhibition for CCOC(=O)C1=C(COCCN)NC(C)=C(C(=O)OC)C1c1ccccc1Cl (stereo unspecified) ?
Result: inactive

----------
# METHOD_SUMMARY: qHTS profiling for inhibitors of Plasmodium falciparum proliferation (AID 504749);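 further: 0% = DMSO vehicle and full inhibition = artemisinin control; nearly all actives have a fitted effect of over 60% in size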
# REPORTED_CONDITIONS: P. falciparum in erythrocytes, SYBR Green DNA, 72 h; at 28.7 µM (top of the series); parasite line A
Results filed as inconclusive are left out.
ATTRIBUTE_MEASURED: activity, negative = inhibition (%)
Respond with the bare value in %.

Request: So what does the record say about activity, negative = inhibition for CC(C)[C@H](N)C(=O)OCC(CO)OCn1cnc2c(=O)[nH]c(N)nc21 (some centres not stated) ?
Result: 14.7

Request: So what does the record say about activity, negative = inhibition for OB(O)O ?
Result: 8.7

Request: So what does the record say about activity, negative = inhibition for O=C1c2ccccc2C(=O)c2c1ccc(O)c2O ?
Result: 4.44

Request: So what does the record say about activity, negative = inhibition for O=C(O)[C@H]1CN(C/C=C/P(=O)(O)O)CCN1 ?
Result: 5.03

Request: So what does the record say about activity, negative = inhibition for CSCCC(N)C(=O)O (configuration not stated) ?
Result: 6.14

Request: So what does the record say about activity, negative = inhibition for CC(=O)N[C@@H]1C(O[C@H]2O[C@H](C(=O)O)C(O)[C@H](O)[C@H]2O)[C@H](O)[C@@H](CO)O[C@H]1O[C@@H]1C(C(=O)O)O[C@@H](O[C@H]2[C@H](O)[C@@H](CO)OC(O)[C@@H]2NC(C)=O)[C@H](O)[C@H]1O (some centres not stated) ?
Result: 0.279

Request: So what does the record say about activity, negative = inhibition for CC(C)(C)c1ccc2c(S(=O)(=O)O)c(C(C)(C)C)ccc2c1 ?
Result: 16.3

Request: So what does the record say about activity, negative = inhibition for Cc1ncc(COP(=O)(O)O)c(CN)c1O ?
Result: -3.16

Request: So what does the record say about activity, negative = inhibition for CCCCCCOC(=O)c1cccnc1 ?
Result: 6.05

Request: So what does the record say about activity, negative = inhibition for CCCOC(=O)c1ccccc1O ?
Result: 3.1

Request: So what does the record say about activity, negative = inhibition for O=C(NNCNNC(=O)c1ccncc1)c1ccncc1 ?
Result: 1.43

Request: So what does the record say about activity, negative = inhibition for CC1=C(/C=C/C(C)=C/C=C/C(C)=C/C(=O)Oc2c(C)c(C)c3c(c2C)CC[C@@](C)(CCC[C@H](C)CCC[C@H](C)CCCC(C)C)O3)C(C)(C)CCC1 ?
Result: 5.64

Request: So what does the record say about activity, negative = inhibition for COc1ccc(/C=N/NC(=O)c2ccncc2)c(C(=O)O)c1OC ?
Result: 15.9

Request: So what does the record say about activity, negative = inhibition for NCC(O)CC(=O)O (configuration not stated) ?
Result: 13

Request: So what does the record say about activity, negative = inhibition for c1ccc2ccccc2c1 ?
Result: 8.79

Request: So what does the record say about activity, negative = inhibition for O=C(O)[C@H]1C(=CCO)O[C@H]2CC(=O)N12 ?
Result: 6.84

Request: So what does the record say about activity, negative = inhibition for CC(C)(C)CC(C)(C)c1cc(Cc2cc(C(C)(C)CC(C)(C)C)cc(-n3nc4ccccc4n3)c2O)c(O)c(-n2nc3ccccc3n2)c1 ?
Result: 10.8

Request: So what does the record say about activity, negative = inhibition for O=C(O)C1=C(CSc2nnnn2CS(=O)(=O)O)CS[C@@H]2[C@H](NC(=O)[C@H](O)c3ccccc3)C(=O)N12 ?
Result: -7.54

Request: So what does the record say about activity, negative = inhibition for CCCCCCCCCCCC(=O)N(CCO)CCO ?
Result: -3.5

Request: So what does the record say about activity, negative = inhibition for O=C(O)c1cc(N=Nc2ccc(O)c(C(=O)O)c2)ccc1O ?
Result: 9.5

Request: So what does the record say about activity, negative = inhibition for O=C1c2ccccc2C(=O)C1c1ccc(Cl)cc1 ?
Result: 10.7

Request: So what does the record say about activity, negative = inhibition for CC(/C=C/C=C(\C)C(=O)O[C@@H]1O[C@H](CO[C@@H]2O[C@H](CO)[C@@H](O)[C@H](O)[C@H]2O)[C@@H](O)[C@H](O)[C@H]1O)=C\C=C\C=C(C)\C=C\C=C(/C)C(=O)O[C@@H]1O[C@H](CO[C@@H]2O[C@H](CO)[C@@H](O)[C@H](O)[C@H]2O)[C@@H](O)[C@H](O)[C@H]1O ?
Result: 7.84

Request: So what does the record say about activity, negative = inhibition for CC(=O)[O][Al][O]C(C)=O ?
Result: 4.56

Request: So what does the record say about activity, negative = inhibition for Cc1c(C)c2c(c(C)c1OC(=O)CCC(=O)O)CC[C@@](C)(CCC[C@H](C)CCC[C@H](C)CCCC(C)C)O2 ?
Result: -10.9

Request: So what does the record say about activity, negative = inhibition for C[Se]CC[C@H](N)C(=O)O ?
Result: 7.69

Request: So what does the record say about activity, negative = inhibition for CC1CC(OC(=O)C(O)c2ccccc2)CC(C)(C)C1 (configuration not stated) ?
Result: -16

Request: So what does the record say about activity, negative = inhibition for OCC(O)CO ?
Result: 7.74

Request: So what does the record say about activity, negative = inhibition for CC(=O)Oc1cccc(C(=O)O)c1OC(C)=O ?
Result: 7.04

Request: So what does the record say about activity, negative = inhibition for NC(=O)[C@@H]1CCCN1C(=O)[C@H](Cc1cnc[nH]1)NC(=O)[C@@H]1CCC(=O)N1 ?
Result: 0.117

Request: So what does the record say about activity, negative = inhibition for C[C@]12CCC(=O)C[C@@H]1CC[C@@H]1[C@@H]2CC[C@]2(C)C=CC[C@@H]12 ?
Result: -20.9

Request: So what does the record say about activity, negative = inhibition for CC(C)NCC(O)COc1ccccc1-n1cccc1 (configuration not stated) ?
Result: 18.2

Request: So what does the record say about activity, negative = inhibition for NC(=S)NS(=O)(=O)c1ccc(N)cc1 ?
Result: -3.33

Request: So what does the record say about activity, negative = inhibition for C=CCCCCCCCCC(=O)OC ?
Result: -4.4

Request: So what does the record say about activity, negative = inhibition for OCCOCCOCCO ?
Result: 16.8

Request: So what does the record say about activity, negative = inhibition for ClC(Cl)Cl ?
Result: 5.74

Request: So what does the record say about activity, negative = inhibition for CCc1ccc(S(=O)(=O)O)cc1 ?
Result: -3.46

Request: So what does the record say about activity, negative = inhibition for Cc1ncc(C[n+]2csc(CCOP(=O)(O)O)c2C)c(N)n1 ?
Result: -5.57

Request: So what does the record say about activity, negative = inhibition for Cc1ccc(C(C)(C)c2ccc(C)cc2)cc1 ?
Result: 2.11

Request: So what does the record say about activity, negative = inhibition for C(=C\c1ccncc1)/c1ccccc1 ?
Result: -2.95

Request: So what does the record say about activity, negative = inhibition for CC1C(=O)CC2C3(C)CCC2(C(C)C(=O)O)C(=O)C13 (configuration not stated) ?
Result: 5.64

Request: So what does the record say about activity, negative = inhibition for C[C@]12CC[C@@H]3c4ccc(OC(=O)c5ccccc5)cc4CC[C@H]3[C@@H]1CC[C@@H]2O ?
Result: -13.9

Request: So what does the record say about activity, negative = inhibition for F[Si-2](F)(F)(F)(F)F ?
Result: 3.4

Request: So what does the record say about activity, negative = inhibition for CC(C)CCCC(C)NC(C)C (configuration not stated) ?
Result: -16.1

Request: So what does the record say about activity, negative = inhibition for Oc1ccc(Cl)c2c1CCC2 ?
Result: 6.7

Request: So what does the record say about activity, negative = inhibition for CCCCC ?
Result: 7.05

Request: So what does the record say about activity, negative = inhibition for CC1=CC(=O)NS(=O)(=O)O1 ?
Result: 0.853

Request: So what does the record say about activity, negative = inhibition for CCC(C(=O)NC(N)=O)c1ccccc1 (configuration not stated) ?
Result: -3.47
